test system: NCI-H23 lung; experiment: NCI-60 one-dose screen, 48 h; conditions: 10 µM unless noted
This is part of a sample that, as a whole, favours compounds with a hit. Of some 83,000 tested, about 20% had one in any assay. The source made the active and inactive calls. How the source made its calls: active means growth percent below 10; inactive means the rest.
In this exercise, the only acceptable responses are active, inactive

compound=N#C/C(=C\c1ccc(C#N)cc1)C(=O)c1ccccc1 category_label=inactive
compound=c1ccc2c(NCCCN3CCN(CCCNc4c5ccccc5nc5ccccc45)CC3)c3ccccc3nc2c1 category_label=active
compound=COc1ccc(Br)c2c1C(=O)CC2 category_label=inactive
compound=CC(C)NC(=O)OCc1c(COC(=O)NC(C)C)c(-c2ccc(Cl)cc2)n2c1CCC2 category_label=inactive
compound="O=C1NC(=O)C(c2ccccc2)O1 (configuration not stated)" category_label=inactive
compound=CCCCN(C=S)CCCC category_label=inactive
compound=NC(=O)N1CCOCC1 category_label=inactive
compound=c1ccc(-c2ccc3ccccc3c2)cc1 category_label=inactive

Continue with the compound presented below.
Field: outcome | Entry: CCNc1ncnc2[nH]ncc12
inactive
